biological target: hERG channel (Homo sapiens); test: hERG electrophysiology, automated whole-cell patch clamp (Patchliner)
Sequence (Q12809 whole entry): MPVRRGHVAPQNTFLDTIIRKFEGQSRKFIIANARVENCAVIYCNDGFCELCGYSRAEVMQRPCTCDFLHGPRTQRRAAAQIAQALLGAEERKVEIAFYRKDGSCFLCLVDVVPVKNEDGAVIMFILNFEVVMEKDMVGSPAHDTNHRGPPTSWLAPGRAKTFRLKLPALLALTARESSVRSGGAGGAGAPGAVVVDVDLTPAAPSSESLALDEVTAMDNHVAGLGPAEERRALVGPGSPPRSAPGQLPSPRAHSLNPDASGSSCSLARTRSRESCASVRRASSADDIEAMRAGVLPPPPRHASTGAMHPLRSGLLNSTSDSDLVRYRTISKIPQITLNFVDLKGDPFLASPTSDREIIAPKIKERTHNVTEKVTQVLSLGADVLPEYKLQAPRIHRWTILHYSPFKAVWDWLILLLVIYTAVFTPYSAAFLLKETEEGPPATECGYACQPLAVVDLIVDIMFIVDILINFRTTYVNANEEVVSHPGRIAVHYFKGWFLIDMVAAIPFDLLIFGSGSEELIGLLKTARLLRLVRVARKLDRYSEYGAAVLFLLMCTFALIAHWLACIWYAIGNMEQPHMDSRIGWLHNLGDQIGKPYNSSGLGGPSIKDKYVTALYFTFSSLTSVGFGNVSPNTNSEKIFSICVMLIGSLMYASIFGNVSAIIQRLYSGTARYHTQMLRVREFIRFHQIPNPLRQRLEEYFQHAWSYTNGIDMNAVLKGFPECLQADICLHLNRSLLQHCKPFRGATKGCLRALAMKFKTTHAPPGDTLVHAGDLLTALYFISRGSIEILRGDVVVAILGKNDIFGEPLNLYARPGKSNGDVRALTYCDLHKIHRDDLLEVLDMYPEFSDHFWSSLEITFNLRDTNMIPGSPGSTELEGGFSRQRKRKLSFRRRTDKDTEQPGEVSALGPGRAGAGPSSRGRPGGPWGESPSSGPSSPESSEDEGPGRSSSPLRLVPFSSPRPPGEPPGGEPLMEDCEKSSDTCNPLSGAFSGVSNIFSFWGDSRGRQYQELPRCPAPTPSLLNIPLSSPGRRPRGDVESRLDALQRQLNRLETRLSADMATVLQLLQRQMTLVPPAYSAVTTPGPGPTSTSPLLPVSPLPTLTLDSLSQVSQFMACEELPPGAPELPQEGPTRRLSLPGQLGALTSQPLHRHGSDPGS
reported-property: IC50

Enquiry: # query: IC50 of entry N[C@@H](c1cc(Cl)c(Cl)cc1O)C1CCN(C(=O)C2CNC(=O)CO2)CC1 (stereo partly drawn) [Compound 231]
Return: > 30 µM

Enquiry: # query: IC50 of entry N[C@@H](c1cc(Cl)c(Cl)cc1O)C1CCN(C(=O)[C@H]2CNC(=O)CO2)CC1 (single isomer, unassigned; isomer 2) [Compound 276]
Return: > 30 µM

Enquiry: # query: IC50 of entry NC(c1cc(Cl)c(Cl)cc1O)C1CCN(S(=O)(=O)N2CCCC2)CC1 (stereo not drawn) [Compound 45, Trifluoroacetic Acid]
Return: < 30 µM

Enquiry: # query: IC50 of entry CC(C)C(N)C(=O)N1CCC([C@@H](N)c2cc(Cl)c(Cl)cc2O)CC1 (stereo partly drawn) [Compound 156, trifluoroacetic acid]
Return: > 30 µM

Enquiry: # query: IC50 of entry N[C@@H](c1cc(Cl)c(Cl)cc1O)C1CCN(C(=O)c2cc(=O)[nH]cn2)CC1 [Compound 176, trifluoroacetic acid]
Return: > 30 µM

Enquiry: # query: IC50 of entry CC(=O)N1CC(C(=O)N2CCC([C@@H](N)c3cc(Cl)c(Cl)cc3O)CC2)C1 [Compound 200]
Return: > 30 µM

Numbers sourced from patent US20230023559A1.
